# Test system: S. aureus RN4220
# assay.method.text: growth inhibition call (relative growth <= 0.2)
# condition.info: 50 µM
About 500 (1.3%) of roughly 39,000 compounds were called active. Shown is part of a subset that was picked to be rich in actives.
Tick one outcome: active, inactive

Look up the recorded call for `C[C@H](O)C#Cc1cnc2c(c1)C(=O)N([C@@H](C)CO)C[C@H](C)[C@@H](CN(C)C(=O)Nc1ccc(C(F)(F)F)cc1)O2` in this test.
inactive

Consider next the molecule `CCn1cnc2c(=O)[nH][nH]c(=O)c21` in the same way.
inactive

Consider next the molecule `CCCC(=O)Nc1ccc2c(c1)OC[C@@H](C)N(C(=O)Cc1cccnc1)C[C@@H](C)[C@H](OC)CN(C)C2=O` in the same way.
inactive

Consider next the molecule `C[C@H](CO)N1C[C@H](C)[C@@H](CN(C)C(=O)C2CCCCC2)OCCCC[C@H](C)Oc2ccc(NC(=O)Nc3ccc(C(F)(F)F)cc3)cc2C1=O` in the same way.
inactive

Consider next the molecule `Cc1cc(C2CCCCC2)n(O)c(=O)c1.NCCO` in the same way.
active

Consider next the molecule `O=C(C[C@H]1CC[C@@H]2[C@H](COC[C@@H](O)CN2C(=O)Nc2ccc(Cl)c(Cl)c2)O1)NCc1ccncc1` in the same way.
active

Consider next the molecule `C[C@@H]1CN([C@H](C)CO)C(=O)c2cccc(NC(=O)C3CCCCC3)c2O[C@@H]1CN(C)C(=O)Nc1ccc(C(F)(F)F)cc1` in the same way.
active

Consider next the molecule `C[C@H](CO)N1C[C@H](C)[C@@H](CN(C)Cc2ccc(-c3ccccc3)cc2)Oc2c(NC(=O)c3ccncc3)cccc2C1=O` in the same way.
inactive

Consider next the molecule `C[C@@H]1CN([C@@H](C)CO)C(=O)c2cccc(NC(=O)C3CCCCC3)c2O[C@H]1CN(C)C(=O)Nc1ccc(C(F)(F)F)cc1` in the same way.
inactive

Consider next the molecule `Cc1noc(C)c1NC(=O)Nc1ccc2c(c1)C(=O)N([C@H](C)CO)C[C@H](C)[C@H](CN(C)C(=O)Nc1ccc(C(F)(F)F)cc1)O2` in the same way.
active

Consider next the molecule `CC(C)(Sc1cc(C(C)(C)C)c(O)c(C(C)(C)C)c1)Sc1cc(C(C)(C)C)c(O)c(C(C)(C)C)c1` in the same way.
inactive

Consider next the molecule `COc1cccc(NC(=O)N2C[C@H](O)COC[C@@H]3O[C@H](CC(=O)NCCCN4CCOCC4)CC[C@H]32)c1` in the same way.
inactive

Consider next the molecule `CN1C(=O)c2cc(NC(=O)C3CCOCC3)ccc2OC[C@H]2O[C@@H](CC(=O)NCc3ccccc3F)CC[C@H]21` in the same way.
inactive

Consider next the molecule `Brc1ccc2nc(N3CCCN(Cc4ccccc4)CC3)nc(NC3CCN(Cc4ccccc4)CC3)c2c1` in the same way.
active

Consider next the molecule `O=C(C[C@@H]1CC[C@@H]2[C@H](COC[C@@H](O)CN2C(=O)Nc2ccc(Cl)c(Cl)c2)O1)NCc1ccc(Cl)c(Cl)c1` in the same way.
inactive

Consider next the molecule `CN(C)CC#Cc1ccc([C@H]2[C@@H](CO)N3C(=O)CN(C(=O)c4cccnc4)C[C@H]23)cc1` in the same way.
inactive

Consider next the molecule `Cc1ccc(S(=O)(=O)N(C)C[C@H]2OCCCC[C@@H](C)Oc3ccc(NC(=O)c4ccccc4)cc3C(=O)N([C@@H](C)CO)C[C@@H]2C)cc1` in the same way.
inactive

Consider next the molecule `C[C@@H]1CCCCO[C@@H](CN(C)Cc2ccccc2)[C@H](C)CN([C@H](C)CO)C(=O)c2cc(NC(=O)Nc3ccccc3)ccc2O1` in the same way.
inactive

Consider next the molecule `C[C@H](CO)N1C[C@H](C)[C@@H](CN(C)Cc2ccc(Cl)c(Cl)c2)Oc2c(NS(=O)(=O)c3ccccc3)cccc2C1=O` in the same way.
inactive

Consider next the molecule `COc1cc2nc(N3CCCN(Cc4ccccc4)CC3)nc(NC3CCN(Cc4ccccc4)CC3)c2cc1OC` in the same way.
inactive

Consider next the molecule `C[C@@H]1CN([C@@H](C)CO)C(=O)c2cc(NC(=O)CCC(F)(F)F)ccc2O[C@H]1CN(C)C(=O)Nc1ccc(C(F)(F)F)cc1` in the same way.
inactive

Consider next the molecule `Cc1noc(C)c1NC(=O)Nc1ccc2c(c1)C(=O)N([C@@H](C)CO)C[C@@H](C)[C@@H](CN(C)C(=O)Nc1ccc(C(F)(F)F)cc1)O2` in the same way.
active

Consider next the molecule `COc1ccc(NC(=O)N(C)C[C@H]2Oc3c(NC(=O)Nc4cccc5ccccc45)cccc3C(=O)N([C@@H](C)CO)C[C@@H]2C)cc1` in the same way.
inactive

Consider next the molecule `COc1ccc(-c2ccc3c(c2)O[C@H](CN(C)CC2CCOCC2)[C@@H](C)CN([C@H](C)CO)S3(=O)=O)cc1` in the same way.
inactive

Consider next the molecule OCC(CO)NC1CC(O)(CO)C(O)C(O)C1O (stereo not given) in the same way.
inactive

Consider next the molecule `O=C(C[C@H]1CC[C@@H]2[C@H](COC[C@@H](O)CN2C(=O)Nc2ccc(Cl)c(Cl)c2)O1)NCc1ccc(Cl)c(Cl)c1` in the same way.
inactive

Consider next the molecule `C[C@@H]1CN([C@@H](C)CO)C(=O)c2cccc(NC(=O)C3CCCCC3)c2O[C@@H]1CN(C)C(=O)Nc1ccc(C(F)(F)F)cc1` in the same way.
active

Consider next the molecule `C[C@@H]1CN([C@H](C)CO)C(=O)c2cc(NS(=O)(=O)c3ccc(F)cc3)ccc2O[C@H]1CN(C)S(=O)(=O)c1cccs1` in the same way.
inactive

Consider next the molecule `O=P(O)(O)C(Sc1ccc(Cl)cc1)P(=O)(O)O` in the same way.
inactive

Consider next the molecule `COc1ccc(CN(C)C[C@H]2Oc3ccc(NC(=O)Cn4cnnn4)cc3C(=O)N([C@@H](C)CO)C[C@H]2C)cc1` in the same way.
inactive
